B1: TPR 5TU (parent)
chain: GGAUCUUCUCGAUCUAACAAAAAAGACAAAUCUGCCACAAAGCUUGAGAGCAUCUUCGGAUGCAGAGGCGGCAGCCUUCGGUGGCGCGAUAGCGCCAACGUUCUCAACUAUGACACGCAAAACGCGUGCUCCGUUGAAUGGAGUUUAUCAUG

Variants of: B1
protocol summary: polymerase ribozyme fitness, log enrichment relative to wild type (log ratio); higher = more active; in vitro selection for triplet polymerase activity
This sample holds only a part of the variants without activity.
I'd be grateful if you could share measured polymerase ribozyme fitness (log ratio) for these entries.
Answer with a number only.

Note down polymerase ribozyme fitness (log ratio) recorded for C93G A147U
-1.74

Note down polymerase ribozyme fitness (log ratio) recorded for A52G C57G A73U G84A
-3.44

Note down polymerase ribozyme fitness (log ratio) recorded for C14A C35U C57U G59C U134A
-4.18

Note down polymerase ribozyme fitness (log ratio) recorded for A17G G50U
0.372

Note down polymerase ribozyme fitness (log ratio) recorded for G46C C96A C123G
-1.48

Note down polymerase ribozyme fitness (log ratio) recorded for C5U G92A
-1.32

Note down polymerase ribozyme fitness (log ratio) recorded for C54A G141A
-0.156

Note down polymerase ribozyme fitness (log ratio) recorded for G11U A41U C93U C99A U104G C118U G140U G152U
-4.02

Note down polymerase ribozyme fitness (log ratio) recorded for A40U C79U A121G
-2.75

Note down polymerase ribozyme fitness (log ratio) recorded for C99U C125U
0.0952

Note down polymerase ribozyme fitness (log ratio) recorded for U61C G126A
-0.237

Note down polymerase ribozyme fitness (log ratio) recorded for G94A G141U
0.898

Note down polymerase ribozyme fitness (log ratio) recorded for G25A A49G C96G
-3.91

Note down polymerase ribozyme fitness (log ratio) recorded for A17G G59A G143C
-1.26

Note down polymerase ribozyme fitness (log ratio) recorded for A16C C57U C129U G143A
-1.91

Note down polymerase ribozyme fitness (log ratio) recorded for A40C U55A A89C
0.0362

Note down polymerase ribozyme fitness (log ratio) recorded for C76U A150C
-3.79

Note down polymerase ribozyme fitness (log ratio) recorded for A21G U139A
-3.9

Note down polymerase ribozyme fitness (log ratio) recorded for A3G C116U G124A A142G
-2.6

Note down polymerase ribozyme fitness (log ratio) recorded for U90C A147U
-3.58

Note down polymerase ribozyme fitness (log ratio) recorded for A37G G50C
-3.93

Note down polymerase ribozyme fitness (log ratio) recorded for A12G C96A U134C A138G G141C
-3.97

Note down polymerase ribozyme fitness (log ratio) recorded for A29U C99A
-4.17

Note down polymerase ribozyme fitness (log ratio) recorded for A26G U78C
-3.95

Note down polymerase ribozyme fitness (log ratio) recorded for G50U U78C U139G
-3.06

Note down polymerase ribozyme fitness (log ratio) recorded for A17G A113C
-2.83

Note down polymerase ribozyme fitness (log ratio) recorded for A37G U55G C85G
-3.49

Note down polymerase ribozyme fitness (log ratio) recorded for G34A G84A U134G
-2.82

Note down polymerase ribozyme fitness (log ratio) recorded for A52U U82G U135G A150U
-2.62

Note down polymerase ribozyme fitness (log ratio) recorded for G48A A52C C85U
-2.93

Note down polymerase ribozyme fitness (log ratio) recorded for C32U C125U
-2.22

Note down polymerase ribozyme fitness (log ratio) recorded for C103A A120G C131U A138U
-3.71

Note down polymerase ribozyme fitness (log ratio) recorded for A22C U53G G94A A119G
-1.81

Note down polymerase ribozyme fitness (log ratio) recorded for G92U C125U
-1.4

These entries and their values trace back to the RNAGym collection of RNA variant scans (doi:10.1073/pnas.2313332121).
